tested on: Huh-7.5; test: Cytotoxicity against human Huh7.5 cells assessed as inhibition of cell growth measured after 96 hrs by MTT assay; format: toxicity, cell-based; conditions: huh-7.5, 96 h
Measured Parameter: log10 CC50 (log10 of the value in µM)

[
  {
    "Compound": "COc1ccc2c(O[C@@H]3C[C@H]4C(=O)N[C@]5(C(=O)NS(=O)(=O)C6CC6)CC5/C=C\\CCCCN(C)C(=O)[C@@H]4C3)cc(-c3nc(C(C)C)cs3)nc2c1C (single isomer, unassigned)",
    "Measured Target": "Huh-7.5",
    "log10 CC50": 1.58
  },
  {
    "Compound": "CCCOc1ccc(C(=O)Nc2ccc(OC)cc2)cc1NC(=O)CC",
    "Measured Target": "Huh-7.5",
    "log10 CC50": 2.03
  },
  {
    "Compound": "CC1CN(Cc2ccc(NC(=O)c3ccc(OCCCCl)c([N+](=O)[O-])c3)cc2C(F)(F)F)CC(C)O1 (centres undefined)",
    "Measured Target": "Huh-7.5",
    "log10 CC50": 0.36
  },
  {
    "Compound": "CCC(=O)Nc1cc(C(=O)Nc2ccc(OC)cc2)ccc1OCCCN1CCOCC1",
    "Measured Target": "Huh-7.5",
    "log10 CC50": 1.69
  },
  {
    "Compound": "CC(C)Oc1ccc(C(=O)Nc2ccc(N(C)C)cc2)cc1N",
    "Measured Target": "Huh-7.5",
    "log10 CC50": 1.86
  },
  {
    "Compound": "CN(C)C1CCN(Cc2ccc(NC(=O)c3ccc(OCCCCl)c([N+](=O)[O-])c3)cc2C(F)(F)F)CC1",
    "Measured Target": "Huh-7.5",
    "log10 CC50": 0.74
  },
  {
    "Compound": "CC(C)Oc1ccc(C(=O)Nc2ccc(CN3CCN(C)CC3)c(C(F)(F)F)c2)cc1N",
    "Measured Target": "Huh-7.5",
    "log10 CC50": 1.33
  },
  {
    "Compound": "CCC(=O)Nc1cc(C(=O)Nc2ccc(N(C)C)cc2)ccc1OC",
    "Measured Target": "Huh-7.5",
    "log10 CC50": 2.23
  },
  {
    "Compound": "CCC(=O)Nc1cc(C(=O)Nc2ccc(-c3cc4ccccc4[nH]3)cc2)ccc1OC",
    "Measured Target": "Huh-7.5",
    "log10 CC50": 1.82
  },
  {
    "Compound": "COc1ccc(NC(=O)c2ccc3c(c2)NCCO3)cc1",
    "Measured Target": "Huh-7.5",
    "log10 CC50": 2.18
  },
  {
    "Compound": "CC(C)Oc1ccc(C(=O)Nc2ccc(CN3CCN(C)CC3)c(C(F)(F)F)c2)cc1[N+](=O)[O-]",
    "Measured Target": "Huh-7.5",
    "log10 CC50": 0.54
  },
  {
    "Compound": "CN(C)C1CN(Cc2ccc(NC(=O)c3ccc(OCCCCl)c([N+](=O)[O-])c3)cc2C(F)(F)F)C1",
    "Measured Target": "Huh-7.5",
    "log10 CC50": 0.89
  },
  {
    "Compound": "CC(C)Oc1ccc(C(=O)Nc2ccc(N(C)C)cc2)cc1[N+](=O)[O-]",
    "Measured Target": "Huh-7.5",
    "log10 CC50": 1.70
  },
  {
    "Compound": "CCC(=O)Nc1cc(C(=O)Nc2ccc(OC)cc2)ccc1OC(C)C",
    "Measured Target": "Huh-7.5",
    "log10 CC50": 2.05
  },
  {
    "Compound": "CCOc1ccc(C(=O)Nc2ccc(OC)cc2)cc1NC(=O)CC",
    "Measured Target": "Huh-7.5",
    "log10 CC50": 1.86
  },
  {
    "Compound": "CN(C)C1CCN(Cc2ccc(NC(=O)c3ccc(OCCCCl)c([N+](=O)[O-])c3)cc2C(F)(F)F)C1 (centres undefined)",
    "Measured Target": "Huh-7.5",
    "log10 CC50": 0.76
  },
  {
    "Compound": "CN1CCN(Cc2ccc(NC(=O)c3ccc(OCCCCl)c(N)c3)cc2C(F)(F)F)CC1",
    "Measured Target": "Huh-7.5",
    "log10 CC50": 1.11
  },
  {
    "Compound": "CN1CCN(Cc2ccc(NC(=O)c3ccc(OCCCCl)c(C(F)(F)F)c3)cc2C(F)(F)F)CC1",
    "Measured Target": "Huh-7.5",
    "log10 CC50": 1.13
  }
]

All figures here come from ChEMBL document CHEMBL5046236.
